Parameter: inhibition. Scope: all listed entries.
molecular target: Kelch-like ECH-associated protein 1 (Homo sapiens) (UniProt Q14145); assay: Keap1-Nrf2 protein-protein interaction inhibitors, primary screen, biochemical, fluorescence polarization, single point (AID 504523); conditions: Keap1 Kelch-Nrf2 peptide fluorescence polarization, 1536-well; at 9.4 µM; hits give high values;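 also: human Keap1 Kelch domain with fluorescein labeled Nrf2 9mer peptide probe; 0% = neutral control wells and 100% = peptide positive control; higher means more block of Keap1 binding to Nrf2 peptide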
Sequence (Q14145 whole entry, looked up, the tested form may be a part): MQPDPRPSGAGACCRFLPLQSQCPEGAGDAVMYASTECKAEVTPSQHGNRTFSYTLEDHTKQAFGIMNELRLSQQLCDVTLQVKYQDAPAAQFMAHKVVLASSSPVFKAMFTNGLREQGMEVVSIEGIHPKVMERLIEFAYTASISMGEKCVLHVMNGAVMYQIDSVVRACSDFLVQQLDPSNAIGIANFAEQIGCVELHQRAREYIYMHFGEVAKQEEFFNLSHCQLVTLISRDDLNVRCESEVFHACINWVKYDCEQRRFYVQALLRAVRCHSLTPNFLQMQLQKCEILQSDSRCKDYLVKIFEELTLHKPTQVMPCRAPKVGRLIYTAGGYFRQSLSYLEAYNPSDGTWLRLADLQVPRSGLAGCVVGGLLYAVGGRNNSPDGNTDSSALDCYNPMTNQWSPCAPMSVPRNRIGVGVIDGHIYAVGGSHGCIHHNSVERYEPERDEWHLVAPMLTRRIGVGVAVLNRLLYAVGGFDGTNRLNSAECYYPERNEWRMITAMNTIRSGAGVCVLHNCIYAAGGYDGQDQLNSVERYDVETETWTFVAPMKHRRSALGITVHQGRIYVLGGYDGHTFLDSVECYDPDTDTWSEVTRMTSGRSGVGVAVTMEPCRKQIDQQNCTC
In all, about 340,000 compounds went through this assay and about 490 (0.14%) were called active. Shown is part of a subset that was picked to be rich in actives.

[
  {
    "COMPOUND SMILES": "CN(C)C(=S)N=c1ssc(=S)n1Cc1ccco1",
    "inhibition, %": -0.0433
  },
  {
    "COMPOUND SMILES": "O=S(=O)(c1ccc(Br)cc1)c1nc(-c2ccccc2)oc1N1CCOCC1",
    "inhibition, %": -9.08
  },
  {
    "COMPOUND SMILES": "COCCOC(=O)c1sc(=S)n(CCOC)c1N",
    "inhibition, %": -0.978
  },
  {
    "COMPOUND SMILES": "CN(CC(=O)Nc1ccc(C(N)=O)cc1)S(=O)(=O)c1ccc2c(c1)OCCO2",
    "inhibition, %": -4.93
  },
  {
    "COMPOUND SMILES": "CCN1/C(=C\\c2ccc3ccccc3[n+]2CC)Sc2cc(C)ccc21",
    "inhibition, %": 15.5
  },
  {
    "COMPOUND SMILES": "Cc1noc(C)c1COC(=O)Cn1c(C)nc2ccccc21",
    "inhibition, %": 1.41
  }
]
